System: SF-268 CNS
experiment_summary: NCI-60 one-dose screen, 48 h
setup_conditions: 10 µM
This is part of a sample that, as a whole, favours compounds with a hit. Of some 83,000 tested, about 20% had one in any assay. The source made the active and inactive calls. The calls were made as follows: active = growth percent below 10; inactive = the rest.
Log the outcome using a class from active, inactive

N#CN1CC[C@H](C(=O)Nc2ncc(-c3ccccc3)s2)C1 : active

Query: Check the results log: what was the call for COc1cc(CSc2nc3ccc(C)cc3c(=O)n2-c2ccccc2)cc(OC)c1OC ?
Result: inactive

Query: What was the test verdict on Cc1ccc(NS(=O)(=O)c2ccccc2)c(NS(=O)(=O)c2ccccc2)c1 ?
Result: inactive

Query: // outcome(item) with item = CCOC(=O)c1cc2c(n1Cc1cccc(OC)c1)-c1oncc1CC2
Result: inactive

Query: Each compound tested received a call. Report the one for NC(=O)C12C(=O)NC(=O)C1(C(=O)O)C21CCCC1 (centres undefined) .
Result: inactive

Query: // param item: CCCCn1c(=O)[nH]c(N)c(C(c2ccc(Cl)cc2)c2c(N)[nH]c(=O)n(CCCC)c2=O)c1=O ; yields the recorded call
Result: inactive

Query: What outcome does the record of this test show for CCCCCCCCCCCCCCCC(=O)N1CCN(C)CC1 ?
Result: inactive

Query: Call for entry O=CNc1c(Cl)cc2c(c1Cl)Cc1cc([N+](=O)[O-])ccc1-2 :
Result: inactive

Query: # outcome recorded in this test, key = Brc1ccc(-c2cn3ccnc3c(-c3ccc(Br)cc3)n2)cc1
Result: inactive

Cited source for all entries: PubChem BioAssay (NCI)
